- target desc: Retinol-binding protein 4 (Homo sapiens, UniProt P02753)
- protocol summary: Binding affinity to His-tagged recombinant human sRBP expressed in Pichia pastoris assessed as apparent dissociation constant after 5 mins by fluorescence spectrophotometric analysis
- protocol conditions: read-out: Kd(app)
This section presents compounds with their documented Kd values.
Enter your answer as a number in nM; do not include the unit.

compound	units text	Kd
CC1=C(/C=C/C(C)=C/C=C/C(C)=C/C(=O)Nc2ccc(N(C)C)cc2)C(C)(C)CCC1	nM	98
CC1=C(/C=C/C(C)=C/C=C/C(C)=C/C(=O)NCCO)C(C)(C)CCC1	nM	214
CC1=C(/C=C/C(C)=C/C=C/C(C)=C/C(=O)N2CCOCC2)C(C)(C)CCC1	nM	227
COC(=O)COc1ccc(NC(=O)/C=C(C)/C=C/C=C(C)/C=C/C2=C(C)CCCC2(C)C)cc1	nM	131

Turning to the following compound.
Look up Kd for this compound: CC1=C(/C=C/C(C)=C/C=C/C(C)=C/C(=O)NCC(O)CO)C(C)(C)CCC1 (stereo not given)
178
